TESTED ON: IKZF1 (Homo sapiens, UniProt Q13422+Q96SW2)
Construct: expressed in transfected cells
Sequence (Q13422 whole entry): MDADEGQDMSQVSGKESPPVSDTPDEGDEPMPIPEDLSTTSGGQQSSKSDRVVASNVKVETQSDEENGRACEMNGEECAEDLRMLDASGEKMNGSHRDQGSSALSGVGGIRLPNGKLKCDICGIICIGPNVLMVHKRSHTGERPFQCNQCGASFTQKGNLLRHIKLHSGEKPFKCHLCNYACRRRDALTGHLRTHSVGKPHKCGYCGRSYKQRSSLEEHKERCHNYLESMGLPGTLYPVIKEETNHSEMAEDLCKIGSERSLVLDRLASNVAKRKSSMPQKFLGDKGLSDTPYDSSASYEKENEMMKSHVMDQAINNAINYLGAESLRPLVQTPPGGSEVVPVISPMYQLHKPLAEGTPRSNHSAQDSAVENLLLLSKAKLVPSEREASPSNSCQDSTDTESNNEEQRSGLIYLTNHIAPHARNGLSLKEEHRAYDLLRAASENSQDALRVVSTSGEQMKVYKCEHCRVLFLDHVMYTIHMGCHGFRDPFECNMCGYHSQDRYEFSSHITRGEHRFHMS
Sequence (Q96SW2 whole entry): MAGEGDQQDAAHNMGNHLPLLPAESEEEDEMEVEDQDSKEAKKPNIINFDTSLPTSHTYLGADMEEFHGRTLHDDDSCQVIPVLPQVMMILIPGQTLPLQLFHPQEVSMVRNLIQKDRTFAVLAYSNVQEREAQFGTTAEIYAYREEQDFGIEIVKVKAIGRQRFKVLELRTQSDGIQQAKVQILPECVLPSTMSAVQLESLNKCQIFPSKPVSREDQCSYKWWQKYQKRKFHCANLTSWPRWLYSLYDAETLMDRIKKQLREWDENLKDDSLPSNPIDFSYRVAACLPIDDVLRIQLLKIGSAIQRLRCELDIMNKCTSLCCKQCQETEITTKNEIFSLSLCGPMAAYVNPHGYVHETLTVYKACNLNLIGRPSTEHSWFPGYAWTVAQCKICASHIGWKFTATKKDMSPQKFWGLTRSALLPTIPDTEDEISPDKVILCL
Sequence (Q16531 whole entry partner): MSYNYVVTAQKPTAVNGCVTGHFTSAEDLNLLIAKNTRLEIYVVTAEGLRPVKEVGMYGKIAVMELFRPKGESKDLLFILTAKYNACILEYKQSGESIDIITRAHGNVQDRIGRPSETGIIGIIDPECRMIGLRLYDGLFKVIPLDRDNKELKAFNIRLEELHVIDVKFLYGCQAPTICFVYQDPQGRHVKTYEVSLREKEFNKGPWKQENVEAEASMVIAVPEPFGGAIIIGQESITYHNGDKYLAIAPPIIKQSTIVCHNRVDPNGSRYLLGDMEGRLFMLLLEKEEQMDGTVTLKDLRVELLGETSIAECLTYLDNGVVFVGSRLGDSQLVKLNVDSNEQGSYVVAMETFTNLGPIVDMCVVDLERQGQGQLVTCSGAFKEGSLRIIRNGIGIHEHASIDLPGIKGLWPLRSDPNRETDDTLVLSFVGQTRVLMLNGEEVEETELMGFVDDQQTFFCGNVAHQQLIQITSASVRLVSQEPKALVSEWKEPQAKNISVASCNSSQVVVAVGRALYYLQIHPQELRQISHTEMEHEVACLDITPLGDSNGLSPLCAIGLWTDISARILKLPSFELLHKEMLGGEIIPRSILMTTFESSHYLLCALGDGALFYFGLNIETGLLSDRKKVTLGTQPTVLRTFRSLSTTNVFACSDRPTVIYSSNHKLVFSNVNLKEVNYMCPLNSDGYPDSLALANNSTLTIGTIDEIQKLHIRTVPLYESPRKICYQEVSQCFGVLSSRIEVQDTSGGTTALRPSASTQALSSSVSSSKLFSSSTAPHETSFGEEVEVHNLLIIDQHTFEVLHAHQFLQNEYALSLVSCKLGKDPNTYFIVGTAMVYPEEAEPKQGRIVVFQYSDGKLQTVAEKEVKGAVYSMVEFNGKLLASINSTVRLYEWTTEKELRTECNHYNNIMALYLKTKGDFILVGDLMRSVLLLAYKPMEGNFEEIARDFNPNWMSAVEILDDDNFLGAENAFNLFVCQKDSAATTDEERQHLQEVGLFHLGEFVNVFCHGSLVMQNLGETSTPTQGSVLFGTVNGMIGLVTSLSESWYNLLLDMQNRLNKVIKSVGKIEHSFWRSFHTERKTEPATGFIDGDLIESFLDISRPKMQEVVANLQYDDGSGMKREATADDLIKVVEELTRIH
ASSAY PROCEDURE: HEK293 HiBiT in vitro degradation of IKZF1
Format: cell-based
CONDITION SUMMARY: HEK293, HEK293 HiBiT; maximum degradation at the highest concentration tested
Each entry below carries its recorded Dmax.
Provide a numeric answer, followed by its unit.

1. CC(C)(C)CCN[C@H]1CCCC[C@@H]1Cc1ccc2c(c1)CN(C1CCC(=O)NC1=O)C2=O (some centres unmarked): 44%
2. O=C1CCC(N2Cc3c(ccc(C[C@H]4CCCC[C@@H]4NC4CCC(F)(F)CC4)c3F)C2=O)C(=O)N1 (some centres unmarked): 68%
3. O=C1CC[C@H](N2Cc3c(ccc(C[C@H]4OCCC[C@@H]4N[C@H]4CC[C@H](C(F)F)CC4)c3F)C2=O)C(=O)N1 (single isomer, unassigned): 28%
4. CC(N[C@H]1CC(F)(F)CC[C@@H]1Cc1ccc2c(c1)CN(C1CCC(=O)NC1=O)C2=O)C1CCOCC1 (some centres unmarked): 42%
5. O=C1CCC(N2Cc3cc(C[C@H]4CCCC[C@@H]4NC4CC5(CCC(F)(F)CC5)C4)ccc3C2=O)C(=O)N1 (some centres unmarked): 33%
6. O=C1CCC(N2Cc3cc(C[C@H]4CCCC[C@@H]4NC4CCCOCC4)ccc3C2=O)C(=O)N1 (some centres unmarked): 22%
7. O=C1CCC(N2Cc3cc(C[C@H]4CCCC[C@@H]4NCCCC(F)F)ccc3C2=O)C(=O)N1 (some centres unmarked): 24%
8. O=C1CCC(N2Cc3c(ccc(C[C@H]4CCCC[C@@H]4NCC4CC(F)(F)C4)c3F)C2=O)C(=O)N1 (some centres unmarked): 41%

What is its Dmax for IKZF1 (Homo sapiens, UniProt Q13422+Q96SW2)? Entry: CC1(C)CC(N[C@H]2CCCC[C@@H]2Cc2ccc3c(c2)CN(C2CCC(=O)NC2=O)C3=O)CCO1 (some centres unmarked) 34%

Requested read-out Dmax, target or system IKZF1 (Homo sapiens, UniProt Q13422+Q96SW2), entry O=C1CCC(N2Cc3cc(C[C@H]4CCCC[C@@H]4NC4CC5CCC(C4)O5)ccc3C2=O)C(=O)N1 (some centres unmarked) 30%

Hello, I am looking for reported Dmax with IKZF1 (Homo sapiens, UniProt Q13422+Q96SW2) for CC1(C)OCCC1N[C@H]1CCCC[C@@H]1Cc1ccc2c(c1)CN(C1CCC(=O)NC1=O)C2=O (single isomer, unassigned) . Could you help? 35%

---

TESTED ON: IKZF1 (Homo sapiens, UniProt Q13422+Q96SW2)
Construct: expressed in transfected cells
ASSAY PROCEDURE: HEK293 HiBiT in vitro degradation of IKZF1
Assay type: cell-based
CONDITION SUMMARY: HEK293 HiBiT, 18-24 hr incubation, normalized to DMSO control; read-out: IKZF1 EC50
READOUT TYPE: DC50 (nM)
Reply with just the number (in nM).

Worked cases, DC50 given:
1) O=C1CCC(N2Cc3cc(C[C@H]4CCCC[C@@H]4NC4CCC5(CC4)CC5)ccc3C2=O)C(=O)N1 (stereo partly shown): 327
2) CC(C)N[C@H]1CCCC[C@@H]1Cc1ccc2c(c1F)CN(C1CCC(=O)NC1=O)C2=O (stereo partly shown): 70

Proceed to the following item.
Record lookup: for IKZF1 (Homo sapiens, UniProt Q13422+Q96SW2), what DC50 belongs to CC(C)(C)CCN[C@H]1CCCC[C@@H]1Cc1ccc2c(c1F)CN(C1CCC(=O)NC1=O)C2=O (stereo partly shown) ? 64

---

Entries and their measured Dmax follow.
TESTED ON: IKZF1 (Homo sapiens, UniProt Q13422+Q96SW2)
Construct: expressed in transfected cells
ASSAY PROCEDURE: HEK293 HiBiT in vitro degradation of IKZF1
Assay type: cell-based
CONDITION SUMMARY: HEK293, HEK293 HiBiT; maximum degradation at the highest concentration tested

1. O=C1CCC(N2Cc3c(ccc(C[C@H]4CCCC[C@@H]4NC4CCOC4)c3F)C2=O)C(=O)N1 (stereo partly shown) [Example 117]: 46%

Please look up its Dmax: O=C1CCC(N2Cc3cc(C[C@H]4C=C(F)CC[C@@H]4NC4CCCCC4)ccc3C2=O)C(=O)N1 (stereo partly shown) [Example 314] 30%

Consider the compound O=C1CCC(N2Cc3c(ccc(C[C@H]4CCCC[C@@H]4NCC4COC4)c3F)C2=O)C(=O)N1 (stereo partly shown) [Example 114] and give its measured Dmax. 28%

Which Dmax is reported for this compound? CC1(C)CC(N[C@H]2CCCC[C@@H]2Cc2ccc3c(c2)CN(C2CCC(=O)NC2=O)C3=O)C1 (stereo partly shown) [Example 82] 28%

// lookup Dmax for [2H]c1c([2H])c([2H])c(C([2H])N[C@H]2CCCC[C@@H]2Cc2ccc3c(c2)CN(C2CCC(=O)NC2=O)C3=O)c([2H])c1[2H] (single isomer, unassigned) [Example 120] 29%

Reported Dmax, compound O=C1CCC(N2Cc3cc(C[C@H]4CCCC[C@@H]4NC4CC5(COC5)C4)ccc3C2=O)C(=O)N1 (stereo partly shown) [Example 80] : ____ 32%

Which Dmax value is on record for CC1CC[C@H](NC2CCC(F)(F)CC2)[C@@H](Cc2ccc3c(c2)CN(C2CCC(=O)NC2=O)C3=O)C1 (single isomer, unassigned) [Example 324] ? 71%

Suppose we examine the compound O=C1CCC(N2Cc3cc(C[C@H]4CC[C@@H](F)C[C@@H]4NC4CCC(F)(F)CC4)ccc3C2=O)C(=O)N1 (stereo partly shown) [Example 354] ; what Dmax value has been reported? 32%

---

TESTED ON: IKZF2 (Homo sapiens, UniProt Q96SW2+Q9UKS7)
ASSAY PROCEDURE: HEK293 HiBiT in vitro degradation of IKZF2
Format: cell-based
Parameters: expressed in transfected cells
CONDITION SUMMARY: HEK293 HiBiT, 18-24 hr incubation, normalized to DMSO control; read-out: IKZF2 EC50
Sequence (Q9UKS7 1-500 isoform Q9UKS7-2): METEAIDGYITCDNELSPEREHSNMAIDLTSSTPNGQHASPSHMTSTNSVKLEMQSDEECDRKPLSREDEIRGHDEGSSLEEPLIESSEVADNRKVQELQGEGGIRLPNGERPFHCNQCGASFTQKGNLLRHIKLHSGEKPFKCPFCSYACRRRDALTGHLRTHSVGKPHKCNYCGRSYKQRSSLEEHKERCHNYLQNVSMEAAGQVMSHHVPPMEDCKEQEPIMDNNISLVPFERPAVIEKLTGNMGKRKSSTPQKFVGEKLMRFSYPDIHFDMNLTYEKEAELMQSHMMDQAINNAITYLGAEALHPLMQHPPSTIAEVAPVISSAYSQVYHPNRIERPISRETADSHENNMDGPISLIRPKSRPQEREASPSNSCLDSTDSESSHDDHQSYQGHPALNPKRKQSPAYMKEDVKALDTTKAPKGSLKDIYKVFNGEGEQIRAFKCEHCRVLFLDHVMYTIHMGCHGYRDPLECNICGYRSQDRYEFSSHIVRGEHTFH
Sequence (Q96SW2 whole entry): as the sequence (Q96SW2 whole entry) above
Sequence (Q16531 whole entry partner): as the sequence (Q16531 whole entry partner) above
READOUT TYPE: DC50 (nM)
I only need the number, in nM, no unit after it.

1. O=C1CCC(N2Cc3cc(C[C@H]4C[C@@H](O)CC[C@@H]4NC4CCC(F)(F)CC4)ccc3C2=O)C(=O)N1 (stereo partly drawn): 58
2. Cn1nccc1CN[C@H]1CCCC[C@@H]1Cc1ccc2c(c1)CN(C1CCC(=O)NC1=O)C2=O (stereo partly drawn): 47
3. O=C1CCC(N2Cc3cc(C[C@H]4CCCC[C@@H]4NC4CC5CC5C4)ccc3C2=O)C(=O)N1 (single isomer, unassigned): 4

Can you look up DC50 on IKZF2 (Homo sapiens, UniProt Q96SW2+Q9UKS7) for CC(CC(F)(F)F)N[C@H]1CCCC[C@@H]1Cc1ccc2c(c1)CN(C1CCC(=O)NC1=O)C2=O (single isomer, unassigned) [Example 249] ? 4

Form: Entry = O=C1CCC(N2Cc3c(ccc(C[C@H]4OCCC[C@@H]4NC4CCC5(CC4)CC5(F)F)c3F)C2=O)C(=O)N1 (single isomer, unassigned) [Example 365] | System = IKZF2 (Homo sapiens, UniProt Q96SW2+Q9UKS7) | DC50 = ____ 3

Can you look up DC50 on IKZF2 (Homo sapiens, UniProt Q96SW2+Q9UKS7) for O=C1CCC(N2Cc3cc(C[C@H]4CCCC[C@@H]4NC4CCC(C(F)F)CC4)ccc3C2=O)C(=O)N1 (stereo partly drawn) [Example 217] ? 3

---

TESTED ON: IKZF2 (Homo sapiens, UniProt Q96SW2+Q9UKS7)
ASSAY PROCEDURE: Human whole blood IKZF2 degradation (flow cytometry, CD4/CD25/Foxp3+ Treg cells)
Format: cell-based
Parameters: endogenous in cells
CONDITION SUMMARY: 24 hrs incubation, IKZF2 MFI in CD4/CD25/Foxp3+ Treg cells, flow cytometry, read-out: IKZF2 EC50
Sequence (Q9UKS7 whole entry): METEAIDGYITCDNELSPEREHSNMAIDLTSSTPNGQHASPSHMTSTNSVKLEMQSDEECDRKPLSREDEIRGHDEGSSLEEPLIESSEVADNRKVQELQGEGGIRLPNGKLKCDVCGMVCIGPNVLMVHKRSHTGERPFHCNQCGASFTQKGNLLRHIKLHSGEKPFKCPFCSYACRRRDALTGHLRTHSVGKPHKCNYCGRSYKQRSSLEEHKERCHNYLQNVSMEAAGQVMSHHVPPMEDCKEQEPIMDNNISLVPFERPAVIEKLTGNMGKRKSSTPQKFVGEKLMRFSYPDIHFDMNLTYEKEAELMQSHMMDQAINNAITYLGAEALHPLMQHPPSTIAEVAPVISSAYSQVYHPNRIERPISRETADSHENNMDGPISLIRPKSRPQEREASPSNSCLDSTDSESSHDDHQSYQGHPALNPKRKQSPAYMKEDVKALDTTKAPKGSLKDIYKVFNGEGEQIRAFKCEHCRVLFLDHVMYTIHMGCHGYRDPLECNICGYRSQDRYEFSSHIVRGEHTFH
Sequence (Q96SW2 whole entry): as the sequence (Q96SW2 whole entry) above
Sequence (Q16531 whole entry partner): as the sequence (Q16531 whole entry partner) above
DC50 strictly under 5 nM means true; at 5 nM or over means false.

1) O=C1CCC(N2Cc3c(ccc(C[C@H]4OCCC[C@@H]4N[C@H]4CC[C@@H](F)CC4)c3F)C2=O)C(=O)N1 (single isomer, unassigned): false
2) O=C1CCC(N2Cc3cc(C[C@H]4CCCC[C@@H]4NC4CCC5(CC4)CC5)ccc3C2=O)C(=O)N1 (stereo partly shown): true
3) O=C1CCC(N2Cc3cc(C[C@H]4OCCC[C@@H]4NC4CCCCC4)ccc3C2=O)C(=O)N1 (stereo partly shown): false
4) CC1(C)CC(N[C@H]2CCCC[C@@H]2Cc2ccc3c(c2)CN(C2CCC(=O)NC2=O)C3=O)C1 (stereo partly shown): true
5) CC(N[C@H]1CCCC[C@@H]1Cc1ccc2c(c1)CN(C1CCC(=O)NC1=O)C2=O)C1CC(F)(F)C1 (single isomer, unassigned) [Example 137]: true

Next, consider the following compound.
Field: below-cutoff. Rule: recorded DC50 strictly less than 5 nM. Subject: CC(C)N[C@H]1CCCC[C@@H]1Cc1ccc2c(c1F)CN(C1CCC(=O)NC1=O)C2=O (stereo partly shown) true
